Test system: EfPiwi piRISC loaded with L1MC piRNA (26 nt)
Test: pre-steady-state target cleavage rate (min^-1); auxiliary factor: 500 nM Ephydatia muelleri Gtsf1; guide: L1MC piRNA 5'p-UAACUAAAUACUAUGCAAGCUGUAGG; MIWI and MILI are mouse PIWI proteins and EfPiwi is from a freshwater sponge; tags in brackets are library labels; higher = faster piRNA-guided slicing of the target
Assign 1.0 to entries whose pre-steady-state target cleavage rate meets or exceeds 0.007; assign 0.0 to the rest.

1) UCCUGGAACAGCUUGCAUAGUAUUAAGUAA; 0.0
2) UCCUGCUACAGCUUGCAUAGUAUUAUGUUA; 0.0
3) UCCUGCUACAGCUUGCAUAGGUAUUUAGUUA; 0.0
4) UCCUGGUACAGCUUCGAUAGUAUUUAGUUA; 0.0
5) UCCUGGAUCAGCAUGCAUAGUAUUUACAAA; 0.0
6) UCCUCCUACAGCAUUGCAUAGUAUUUAGUUA; 1.0
7) UCCUGCUACAGGAAGCAUAGUAUUUAGUUA; 1.0
8) UCCUGCUACACCUUGCAUAGUAUUUUCAAA; 0.0
9) UCCUGCUACACCUUGCAUUGUAUUUAGUUA; 0.0
10) UCCUGGAACAGGAAGCAUAGUAUUUAGUUA; 0.0
11) UCCUGCUACAGCUUGCAUUGUAUUUAGAAA; 0.0
12) UCCUGGUACAGCUUGCAUAGUAUUAUGUUA; 0.0
13) UCCUGGUACAGGCUUGCAUAGUAUUUAGUUA; 1.0
14) UCCUGCUACAGCUUCAUAGUAUUUAGUUA; 1.0
15) UCCUGGAACAGCUUGCAUAGUAUUUAAGUUA; 1.0
16) UCCUGGAUCAGGUUGCAUAGUAUAUAGUUA; 0.0
17) UCCUGGAUCAGGUUGCAUAGUAUUUAGUAA; 0.0
18) UCCUGGAUGUGCUUCAUAGUAUUUAGUUA; 1.0
19) UCCUGCUAGCAGCUUGCAUAGUAUUUAGUUA; 1.0
20) UCCUCCUACAGCUUGCAUAGUAAAAAGUAA; 0.0
21) UCCUGGAUCAGCUUGCAUAGUAUUUAGGUA; 0.0
22) UCCUGGAUGUCCUUGCAUAGUAUUUAGAAA; 0.0
23) UCCUCCAACAGCUUGCAUAGUAUUUAGUAA; 0.0
24) UCCUGGUUCAGCUUGCAUACUAUUUAGUUA; 1.0
25) UCCUGCUACAUGCUUGCAUAGUAUUUAGUUA; 0.0
26) UCCUGCUAGAGCUUGCAUAGUAAUUAGUUA; 0.0
